# credit: ChEMBL document CHEMBL3872205

experiment: MRT (0 to 72 hrs) in Wistar rat Heart at 10 mg/kg, po by HPLC analysis; assay type: ADME, organism-based
READOUT TYPE: MRT last (h)
One number for each entry, in h.

Noted for CCCCC1=NC2(CCCC2)C(=O)N1Cc1ccc2c(ccn2-c2ccccc2-c2nnn[nH]2)c1 : its MRT last reads 7.68

---

test: AUC (0 to 72 hrs) in Wistar rat liver at 30 mg/kg, po by HPLC analysis; assay type: ADME, organism-based; parameters: time < 72 hr, dose 30 mg/kg, route oral
READOUT TYPE: AUC(0-t) at 72 h (ng·h/mL)
Answers are plain numbers, in ng·h/mL.

Noted for CCCCC1=NC2(CCCC2)C(=O)N1Cc1ccc2c(ccn2-c2ccccc2-c2nnn[nH]2)c1 : its AUC(0-t) at 72 h reads 14500

---

assay: MRT (0 to infinity) in Wistar rat plasma at 10 mg/kg, po by HPLC analysis; assay type: ADME, organism-based
READOUT TYPE: MRT inf (h)
One number for each entry, in h.

Noted for CCCCC1=NC2(CCCC2)C(=O)N1Cc1ccc2c(ccn2-c2ccccc2-c2nnn[nH]2)c1 : its MRT inf reads 6.61

---

assay: AUC (0 to infinity) in Wistar rat Heart at 15 mg/kg, po by HPLC analysis; format: ADME, organism-based; parameters: dose 15 mg/kg, time infinity, route oral
READOUT TYPE: AUC(0-inf) (ng·h/mL)
Answers are plain numbers, in ng·h/mL.

Noted for CCCCC1=NC2(CCCC2)C(=O)N1Cc1ccc2c(ccn2-c2ccccc2-c2nnn[nH]2)c1 : its AUC(0-inf) reads 6700

---

experiment: Cmax in Wistar rat brain at 15 mg/kg, po by HPLC analysis; assay type: ADME, organism-based; parameters: dose 15 mg/kg, route oral
READOUT TYPE: Cmax
Note: state the figure and append the unit.

Noted for CCCCC1=NC2(CCCC2)C(=O)N1Cc1ccc2c(ccn2-c2ccccc2-c2nnn[nH]2)c1 : its Cmax reads 93.3 ng/mL

---

assay: AUC (0 to infinity) in Wistar rat brain at 15 mg/kg, po by HPLC analysis; type: ADME, organism-based; design: dose 15 mg/kg, time infinity, route oral
READOUT TYPE: AUC(0-inf) (ng·h/mL)
One number for each entry, in ng·h/mL.

Noted for CCCCC1=NC2(CCCC2)C(=O)N1Cc1ccc2c(ccn2-c2ccccc2-c2nnn[nH]2)c1 : its AUC(0-inf) reads 1180

---

assay: Half life in Wistar rat brain at 30 mg/kg, po by HPLC analysis; assay type: ADME, organism-based
READOUT TYPE: half-life

Noted for CCCCC1=NC2(CCCC2)C(=O)N1Cc1ccc2c(ccn2-c2ccccc2-c2nnn[nH]2)c1 : its half-life reads 2.99 h

---

experiment: Half life in Wistar rat plasma at 30 mg/kg, po by HPLC analysis; type: ADME, organism-based
READOUT TYPE: half-life (h)
Numbers only, in h.

Noted for CCCCC1=NC2(CCCC2)C(=O)N1Cc1ccc2c(ccn2-c2ccccc2-c2nnn[nH]2)c1 : its half-life reads 9.93

---

experiment: AUC (0 to infinity) in Wistar rat spleen at 30 mg/kg, po by HPLC analysis; type: ADME, organism-based; parameters: dose 30 mg/kg, route oral, time infinity
READOUT TYPE: AUC(0-inf) (ng·h/mL)
Answers are plain numbers, in ng·h/mL.

Noted for CCCCC1=NC2(CCCC2)C(=O)N1Cc1ccc2c(ccn2-c2ccccc2-c2nnn[nH]2)c1 : its AUC(0-inf) reads 21000

---

assay: AUC (0 to 72 hrs) in Wistar rat brain at 30 mg/kg, po by HPLC analysis; format: ADME, organism-based; design: dose 30 mg/kg, time < 72 hr, route oral
READOUT TYPE: AUC(0-t) at 72 h (ng·h/mL)
One number for each entry, in ng·h/mL.

Noted for CCCCC1=NC2(CCCC2)C(=O)N1Cc1ccc2c(ccn2-c2ccccc2-c2nnn[nH]2)c1 : its AUC(0-t) at 72 h reads 1790

---

experiment: Tmax in Wistar rat kidney at 10 mg/kg, po by HPLC analysis; format: ADME, organism-based
READOUT TYPE: Tmax (h)
Answers are plain numbers, in h.

Noted for CCCCC1=NC2(CCCC2)C(=O)N1Cc1ccc2c(ccn2-c2ccccc2-c2nnn[nH]2)c1 : its Tmax reads 1.17

---

test: Cmax in Wistar rat liver at 15 mg/kg, po by HPLC analysis; assay type: ADME, organism-based; design: dose 15 mg/kg, route oral
READOUT TYPE: Cmax (ng/mL)
Numbers only, in ng/mL.

Noted for CCCCC1=NC2(CCCC2)C(=O)N1Cc1ccc2c(ccn2-c2ccccc2-c2nnn[nH]2)c1 : its Cmax reads 1230

---

assay: Cmax in Wistar rat spleen at 15 mg/kg, po by HPLC analysis; assay type: ADME, organism-based; set-up: dose 15 mg/kg, route oral
READOUT TYPE: Cmax (ng/mL)
Answers are plain numbers, in ng/mL.

Noted for CCCCC1=NC2(CCCC2)C(=O)N1Cc1ccc2c(ccn2-c2ccccc2-c2nnn[nH]2)c1 : its Cmax reads 2360

---

assay: Tmax in Wistar rat liver at 30 mg/kg, po by HPLC analysis; assay type: ADME, organism-based
READOUT TYPE: Tmax
Note: state the figure and append the unit.

Noted for CCCCC1=NC2(CCCC2)C(=O)N1Cc1ccc2c(ccn2-c2ccccc2-c2nnn[nH]2)c1 : its Tmax reads 4 h

---

assay: MRT (0 to infinity) in Wistar rat kidney at 15 mg/kg, po by HPLC analysis; type: ADME, organism-based
READOUT TYPE: MRT inf (h)
One number for each entry, in h.

Noted for CCCCC1=NC2(CCCC2)C(=O)N1Cc1ccc2c(ccn2-c2ccccc2-c2nnn[nH]2)c1 : its MRT inf reads 29.4

---

experiment: MRT (0 to 72 hrs) in Wistar rat Heart at 30 mg/kg, po by HPLC analysis; assay type: ADME, organism-based
READOUT TYPE: MRT last (h)
One number for each entry, in h.

Noted for CCCCC1=NC2(CCCC2)C(=O)N1Cc1ccc2c(ccn2-c2ccccc2-c2nnn[nH]2)c1 : its MRT last reads 16.2

---

experiment: Half life in Wistar rat kidney at 15 mg/kg, po by HPLC analysis; assay type: ADME, organism-based
READOUT TYPE: half-life (h)
Give bare numbers, in h.

Noted for CCCCC1=NC2(CCCC2)C(=O)N1Cc1ccc2c(ccn2-c2ccccc2-c2nnn[nH]2)c1 : its half-life reads 22.6

---

assay: AUC (0 to 72 hrs) in Wistar rat lung at 15 mg/kg, po by HPLC analysis; assay type: ADME, organism-based; parameters: dose 15 mg/kg, time < 72 hr, route oral
READOUT TYPE: AUC(0-t) at 72 h (ng·h/mL)
Give bare numbers, in ng·h/mL.

Noted for CCCCC1=NC2(CCCC2)C(=O)N1Cc1ccc2c(ccn2-c2ccccc2-c2nnn[nH]2)c1 : its AUC(0-t) at 72 h reads 1350

---

assay: Cmax in Wistar rat heart at 15 mg/kg, po by HPLC analysis; assay type: ADME, organism-based; parameters: dose 15 mg/kg, route oral
READOUT TYPE: Cmax (ng/mL)
Numbers only, in ng/mL.

Noted for CCCCC1=NC2(CCCC2)C(=O)N1Cc1ccc2c(ccn2-c2ccccc2-c2nnn[nH]2)c1 : its Cmax reads 283

---

test: Tmax in Wistar rat lung at 15 mg/kg, po by HPLC analysis; assay type: ADME, organism-based
READOUT TYPE: Tmax (h)
Answers are plain numbers, in h.

Noted for CCCCC1=NC2(CCCC2)C(=O)N1Cc1ccc2c(ccn2-c2ccccc2-c2nnn[nH]2)c1 : its Tmax reads 1

---

assay: AUC (0 to infinity) in Wistar rat plasma at 30 mg/kg, po by HPLC analysis; type: ADME, organism-based; set-up: dose 30 mg/kg, route oral, time infinity
READOUT TYPE: AUC(0-inf) (ng·h/mL)
Answers are plain numbers, in ng·h/mL.

Noted for CCCCC1=NC2(CCCC2)C(=O)N1Cc1ccc2c(ccn2-c2ccccc2-c2nnn[nH]2)c1 : its AUC(0-inf) reads 88800

---

assay: Half life in Wistar rat spleen at 15 mg/kg, po by HPLC analysis; assay type: ADME, organism-based
READOUT TYPE: half-life (min)
Give bare numbers, in min.

Noted for CCCCC1=NC2(CCCC2)C(=O)N1Cc1ccc2c(ccn2-c2ccccc2-c2nnn[nH]2)c1 : its half-life reads 454

---

test: AUC (0 to 72 hrs) in Wistar rat kidney at 30 mg/kg, po by HPLC analysis; assay type: ADME, organism-based; set-up: time < 72 hr, dose 30 mg/kg, route oral
READOUT TYPE: AUC(0-t) at 72 h (ng·h/mL)
Numbers only, in ng·h/mL.

Noted for CCCCC1=NC2(CCCC2)C(=O)N1Cc1ccc2c(ccn2-c2ccccc2-c2nnn[nH]2)c1 : its AUC(0-t) at 72 h reads 22400
